test system: Surinam grass; assay: Test B pre-/postemergence herbicide test; type: in vivo, Urochloa decumbens; settings: postemergence, 500 g ai/ha; visual rating, scale 0 (no effect) to 100 (complete control)
Readout: Surinam Grass plant response rating

Structure Smiles String: C=Cn1nc(C(C)(C)C)cc1C(=O)Nc1cccc(C(C)=O)c1
Observed: 10
--
Structure Smiles String: CCc1nc(C(C)(C)C)sc1C(=O)Nc1cc(C(=O)N(CC)CC)ccc1F
Observed: 10
--
Structure Smiles String: CCCCNS(=O)(=O)c1cccc(NC(=O)c2cc(C(C)(C)C)nn2C)c1
Observed: 10
--
Structure Smiles String: CCc1cn(C(C)(C)C)nc1C(=O)Nc1cc(C(=O)N(CC)CC)ccn1
Observed: 10
--
Structure Smiles String: CCOC(=O)c1cccc(NC(=O)c2cn(C(C)(C)C)nc2CC)c1
Observed: 30
--
Structure Smiles String: CCNC(=O)c1cccc(NC(=O)c2nn(C(C)(C)C)cc2Cl)c1
Observed: 10
--
Structure Smiles String: CCn1nc(C(C)(C)C)cc1C(=O)Nc1cc(C(=O)N2CC=CC2)ccn1
Observed: 20
--
Structure Smiles String: CCNC(=O)c1cccc(NC(=O)c2cn(C(C)(C)C)nc2C)c1
Observed: 20
--
Structure Smiles String: CCOC(=O)c1cc(N(C(C)=O)C(=O)c2cc(C(C)(C)C)nn2CC)ccc1C
Observed: 20

* * *

system: pigweed; assay: Test C pre-/postemergence herbicide test; type: in vivo, Amaranthus retroflexus; settings: 62 g ai/ha; preemergence; scale 0 to 100
Source text: […]
Below, each entry is listed alongside its reported Plant response rating, Pigweed.

Molecule: CCc1nn(C(C)(C)C)nc1C(=O)Nc1cccc(C(=S)N(C)C)c1
System: pigweed
Plant response rating, Pigweed: 100
//
Molecule: C=CCNC(=O)c1cccc(NC(=O)c2sc(C(C)(C)C)nc2CC)c1
System: pigweed
Plant response rating, Pigweed: 100
//
Molecule: CCn1nc(C2(C)CC2)cc1C(=O)Nc1cc(C(=O)N(C)C)ccc1F
System: pigweed
Plant response rating, Pigweed: 100
//
Molecule: CCNC(=O)c1cccc(NC(=O)c2sc(C(C)(C)C)nc2CC)c1
System: pigweed
Plant response rating, Pigweed: 100
//
Molecule: C=CCNC(=O)c1cccc(NC(=O)c2nn(C(C)(C)C)nc2CC)c1
System: pigweed
Plant response rating, Pigweed: 100
//
Molecule: CCn1nc(C(C)(C)C)cc1C(=O)Nc1cc(C(=S)N(C)C)ccc1F
System: pigweed
Plant response rating, Pigweed: 100
//
Molecule: CCN(C)C(=O)c1ccc(F)c(NC(=O)C2CC(C(C)(C)C)=NN2CC)c1 (racemic)
System: pigweed
Plant response rating, Pigweed: 100
//
Molecule: Cc1nn(C(C)(C)C)nc1C(=O)Nc1cccc(C(=O)N2CC=CC2)c1
System: pigweed
Plant response rating, Pigweed: 90
//
Molecule: CCNC(=O)c1cccc(NC(=O)c2sc(C(C)(C)C)nc2CC)n1
System: pigweed
Plant response rating, Pigweed: 80

* * *

Below, each entry is listed alongside its reported Crabgrass, Large plant response rating.
tested on: large crabgrass; experiment: Test B pre-/postemergence herbicide test; format: in vivo, Digitaria sanguinalis; conditions: postemergence, 500 g ai/ha; visual rating, scale 0 (no effect) to 100 (complete control)
Readout: Crabgrass, Large plant response rating

Structure Smiles String: CCn1nc(C(C)(C)C)cc1C(=O)Nc1cccc(SC)c1
Readout: Crabgrass, Large plant response rating
Observed: 30
--
Structure Smiles String: C=CCNC(=O)c1ccc(F)c(NC(=O)c2sc(CC)nc2C(C)(C)C)c1
Readout: Crabgrass, Large plant response rating
Observed: 20
--
Structure Smiles String: C=CCNC(=O)c1cccc(NC(=O)c2sc(C(C)(C)C)nc2CC)c1
Readout: Crabgrass, Large plant response rating
Observed: 20
--
Structure Smiles String: CCCCNS(=O)(=O)c1cccc(NC(=O)c2cc(C(C)(C)C)nn2C)c1
Readout: Crabgrass, Large plant response rating
Observed: 0
--
Structure Smiles String: CCNC(=O)c1cccc(NC(=O)c2sc(C(C)(C)C)nc2CC)n1
Readout: Crabgrass, Large plant response rating
Observed: 30
--
Structure Smiles String: CCNC(=O)c1cccc(NC(=O)c2sc(C(C)(C)C)nc2CC)c1
Readout: Crabgrass, Large plant response rating
Observed: 20
--
Structure Smiles String: CCNC(=O)c1cccc(NC(=O)c2sc(C(C)(C)C)nc2C)c1
Readout: Crabgrass, Large plant response rating
Observed: 20
--
Structure Smiles String: CC(=NO)c1cccc(NC(=O)c2sc(C(C)(C)C)nc2C)c1
Readout: Crabgrass, Large plant response rating
Observed: 50
--
Structure Smiles String: C=Cn1nc(C(C)(C)C)cc1C(=O)Nc1cccc(C(C)=O)c1
Readout: Crabgrass, Large plant response rating
Observed: 30
--
Structure Smiles String: CCOC(=O)c1cc(N(C(C)=O)C(=O)c2cc(C(C)(C)C)nn2CC)ccc1C
Readout: Crabgrass, Large plant response rating
Observed: 30
--
Structure Smiles String: CCc1nn(C(C)(C)C)cc1C(=O)Nc1cc(C(=O)N(CC)CC)ccc1F
Readout: Crabgrass, Large plant response rating
Observed: 20
--
Structure Smiles String: CCc1nc(C(C)(C)C)sc1C(=O)Nc1cccc(C(=O)NCC(C)C)c1
Readout: Crabgrass, Large plant response rating
Observed: 10

* * *

tested on: lambsquarters; assay: Test C pre-/postemergence herbicide test; format: in vivo, Chenopodium album; settings: Postemergence, 500 g ai/ha; scale 0 to 100
Below, each entry is listed alongside its reported Lambsquarters plant response rating.

Structure Smiles String: C=CCNC(=O)c1cccc(NC(=O)c2cc(C(C)(C)C)nn2CC)c1
Lambsquarters plant response rating: 100
//
Structure Smiles String: CCOC(=O)c1cc(NC(=O)c2cc(C(C)(C)C)nn2CC)ccc1OC
Lambsquarters plant response rating: 100
//
Structure Smiles String: CCCCOC(=O)c1cccc(NC(=O)c2cc(C(C)(C)C)nn2CC)c1
Lambsquarters plant response rating: 100
//
Structure Smiles String: C#CCn1nc(C(C)(C)C)cc1C(=O)Nc1cccc(C(=O)NCC)c1
Lambsquarters plant response rating: 0

* * *

test system: velvetleaf; assay: Test B pre-/postemergence herbicide test; assay type: in vivo, Abutilon theophrasti; conditions: postemergence, 500 g ai/ha; scale 0 to 100, 0 is no effect, 100 is complete control
Readout: Velvetleaf plant response rating

Structure Smiles String: CCNC(=O)c1ccc(OC)c(NC(=O)c2cc(C(C)(C)C)nn2CC)n1
System: velvetleaf
Observed: 0

Structure Smiles String: CCn1nc(C(C)(C)C)cc1C(=O)Nc1cc(C(=O)N(C)C)c(F)cc1F
System: velvetleaf
Observed: 0

Structure Smiles String: CCn1nc(C(C)(C)C)cc1C(=O)Nc1cc(C(=S)N(C)C)ccn1
System: velvetleaf
Observed: 60

* * *

Test system: large crabgrass
Experiment: Test A pre-/postemergence herbicide test
Format: in vivo, Digitaria sanguinalis
Conditions: Postemergence, 500 g ai/ha; 0 to 100 scale, 0 no effect, 100 complete control
Description: […] Plants ranged in height from 2 to 10 cm and were in the one- to two-leaf stage for the postemergence treatment. Treated plants and untreated controls were maintained in a greenhouse for approximately ten days, after which time all treated plants were compared to untreated controls and visually evaluated for injury. […]
Readout: Crabgrass, Large plant response rating

Structure Smiles String: CCn1nc(C(C)(C)C)nc1C(=O)Nc1cccc(C(=O)N(C)C)c1
Observed: 80
//
Structure Smiles String: CCc1nn(C2CCCC2)nc1C(=O)Nc1cccc(C(=O)N2CC=CC2)c1
Observed: 10
//
Structure Smiles String: C=CCN(C)C(=O)c1cccc(NC(=O)c2cc(C(C)(C)C)nn2CC)c1
Observed: 15
//
Structure Smiles String: CCn1nc(C(C)(C)C)cc1C(=O)Nc1cc(C(=O)N(C)C)c(F)cc1F
Observed: 0
//
Structure Smiles String: CCCCOC(=O)c1cccc(NC(=O)c2cc(C(C)(C)C)nn2CC)c1
Observed: 20

* * *

tested on: large crabgrass; test: Test C pre-/postemergence herbicide test; assay type: in vivo, Digitaria sanguinalis; details: 62 g ai/ha; preemergence
Excerpt: […]
Below, each entry is listed alongside its reported Plant response rating (0 = no effect, 100 = complete control), Crabgrass, Large.
Readout: Plant response rating (0 = no effect, 100 = complete control), Crabgrass, Large

Structure Smiles String: CCNC(=O)c1cc(NC(=O)c2cc(C(C)(C)C)nn2CC)ccc1F
Observed: 90
//
Structure Smiles String: CCN(C)C(=O)c1cccc(NC(=O)c2cc(C(C)(C)C)nn2CC)c1
Observed: 0
//
Structure Smiles String: CCn1nc(C(C)(C)C)cc1C(=O)Nc1cccc(SC)c1
Observed: 45
//
Structure Smiles String: CCn1nc(C(C)(C)C)cc1C(=O)Nc1cccc2c1CCN(C1CC1)C2=O
Observed: 0
//
Structure Smiles String: CC(=NO)c1cccc(NC(=O)c2cc(C(C)(C)C)nn2CCF)c1
Observed: 100
